The measurements presented in this section are drawn from ChEMBL document CHEMBL2150845.

System: UniProt P56817 | Read-out: IC50
Sequence (P56817 whole entry): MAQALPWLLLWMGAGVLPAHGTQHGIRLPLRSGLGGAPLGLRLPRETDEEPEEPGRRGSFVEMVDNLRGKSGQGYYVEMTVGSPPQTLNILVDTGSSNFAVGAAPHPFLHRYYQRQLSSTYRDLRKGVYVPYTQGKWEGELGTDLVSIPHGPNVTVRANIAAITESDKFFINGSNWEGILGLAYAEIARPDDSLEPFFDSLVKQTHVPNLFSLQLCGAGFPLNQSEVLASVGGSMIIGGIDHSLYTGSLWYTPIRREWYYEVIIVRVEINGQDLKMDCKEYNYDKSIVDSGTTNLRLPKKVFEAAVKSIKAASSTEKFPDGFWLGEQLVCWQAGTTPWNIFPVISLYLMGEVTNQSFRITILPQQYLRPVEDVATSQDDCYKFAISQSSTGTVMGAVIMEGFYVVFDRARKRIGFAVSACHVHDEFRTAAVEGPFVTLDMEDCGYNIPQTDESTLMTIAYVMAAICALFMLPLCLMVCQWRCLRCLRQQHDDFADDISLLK
MEASURED_ATTRIBUTE: IC50 (nM)

C[C@@]1(c2cc(NC(=O)c3ccn(C(F)F)n3)ccc2F)Cn2cc(C(F)(F)F)nc2C(N)=N1 46.8
C[C@@]1(c2cc(NC(=O)c3ccn(C(F)F)n3)ccc2F)Cn2c(C#N)cnc2C(N)=N1 44.7
